# subject-of-test: human TNFα (Homo sapiens)
# Construct: purchased Biosource, Camarillo, Calif
# Sequence (P01375 77-233 limits assumed): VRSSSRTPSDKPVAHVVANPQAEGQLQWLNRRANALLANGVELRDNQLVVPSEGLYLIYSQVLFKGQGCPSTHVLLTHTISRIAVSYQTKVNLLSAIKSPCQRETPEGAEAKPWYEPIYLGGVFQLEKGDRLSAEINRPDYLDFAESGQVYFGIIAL
# test-description: p55 receptor/IgG fusion protein binding assay (inhibition of TNFα capture by p55-Ig coated plate)
# condition-details: human recombinant TNFα 25 ng/ml preincubated with peptide; relative to TNFα in the absence of peptide; read-out: IC50 (concentration necessary to inhibit TNFα by 50%), inhibition of binding of TNFα to p55TNFr-IgG chimeric construct
No end group written: not given here.
readout-label: IC50

substance="RQSPEKGLEWVAEIRSKSI-NH2 [SEQ ID NO:4]" readout_label=IC50 result="1020 µM"
substance="Ac-TDLRTEDTGVYYCSRNYYGSTY-NH2 [SEQ ID NO:5]" readout_label=IC50 result="1130 µM"
substance="Ac-FSNHWMNW-NH2 [SEQ ID NO:9]" readout_label=IC50 result="60 µM"
substance="Ac-YAESVKGRFTISRDDSKSAVYL-NH2 [SEQ ID NO:3]" readout_label=IC50 result="290 µM"
substance="Ac-FSNHWMNWVR-NH2 [SEQ ID NO:2]" readout_label=IC50 result="410 µM"
substance="Ac-LIKYASQSMSGI-NH2 [SEQ ID NO:1]" readout_label=IC50 result="1880 µM"
substance="Ac-YYSQQSHSWPFTF-NH2 [SEQ ID NO:7]" readout_label=IC50 result="1080 µM"
substance="Ac-INTVESEDIADYYCQQSHSW-NH2 [SEQ ID NO:8]" readout_label=IC50 result="1110 µM"
substance="Ac-DILLTQSPAILSVSPGERVSFS-NH2 [SEQ ID NO:6]" readout_label=IC50 result="2530 µM"
